- assay: CD secondary structure of GOLPH3 proteins (BestSel fits)
- Assay type: physicochemical, human
- details: 10 μM, 100 mM NaCl, 50 mM Tris pH 7.4, 1 mM TCEP, 20 °C
- Description: Supplemental Material for Theodoropoulou, Nasrallah, et al 2026 Isothermal titration calorimetry […] Circular Dichroism Spectroscopy Circular Dichroism Spectra of GOLPH3 proteins (at 10 μM in 100 mM NaCl, 50 mM Tris pH 7.4 and 1 mM TCEP) were collected with a Chirascan V100 (AppliedPhotophysics), using a 1 mm path length cuvette, at 20 °C, in the 200-260 nm range. Thermal denaturation experiments […] every 1 °C, with a temperature ramp speed of 1 °C/min and an equilibration time of […]

| molecule | % beta-antiparallel, % |
| --- | --- |
| GOLPH3-4G: mutant F194G/L195G/L196G/F197G with improved solubility (protein) MTSLTQRSSGLVQRRTEASRNAADKERAAGGGAGSSEDDAQSRRDEQDDDDKGDSKETRLTLMEEVLLLGLKDREGYTSFWNDCISSGLRGCMLIELALRGRLQLEACGMRRKSLLTRKVICKSDAPTGDVLLDEALKHVKETQPPETVQNWIELLSGETWNPLKLHYQLRNVRERLAKNLVEKGVLTTEKQNGGGGDMTTHPLTNNNIKQRLIKKVQEAVLDKWVNDPHRMDRRLLALIYLAHASDVLENAFAPLLDEQYDLATKRVRQLLDLDPEVECLKANTNEVLWAVVAAFTK | 13 |
